Target: T1, Human c-Met-Flis-Fc ECD (human)
T1 construct: also called human c-Met extracellular domain (ECD)-Fc-Flis fusion; Human cMet-ECD-Fc-Flis
T1 sequence (chain, as listed by the source limits assumed): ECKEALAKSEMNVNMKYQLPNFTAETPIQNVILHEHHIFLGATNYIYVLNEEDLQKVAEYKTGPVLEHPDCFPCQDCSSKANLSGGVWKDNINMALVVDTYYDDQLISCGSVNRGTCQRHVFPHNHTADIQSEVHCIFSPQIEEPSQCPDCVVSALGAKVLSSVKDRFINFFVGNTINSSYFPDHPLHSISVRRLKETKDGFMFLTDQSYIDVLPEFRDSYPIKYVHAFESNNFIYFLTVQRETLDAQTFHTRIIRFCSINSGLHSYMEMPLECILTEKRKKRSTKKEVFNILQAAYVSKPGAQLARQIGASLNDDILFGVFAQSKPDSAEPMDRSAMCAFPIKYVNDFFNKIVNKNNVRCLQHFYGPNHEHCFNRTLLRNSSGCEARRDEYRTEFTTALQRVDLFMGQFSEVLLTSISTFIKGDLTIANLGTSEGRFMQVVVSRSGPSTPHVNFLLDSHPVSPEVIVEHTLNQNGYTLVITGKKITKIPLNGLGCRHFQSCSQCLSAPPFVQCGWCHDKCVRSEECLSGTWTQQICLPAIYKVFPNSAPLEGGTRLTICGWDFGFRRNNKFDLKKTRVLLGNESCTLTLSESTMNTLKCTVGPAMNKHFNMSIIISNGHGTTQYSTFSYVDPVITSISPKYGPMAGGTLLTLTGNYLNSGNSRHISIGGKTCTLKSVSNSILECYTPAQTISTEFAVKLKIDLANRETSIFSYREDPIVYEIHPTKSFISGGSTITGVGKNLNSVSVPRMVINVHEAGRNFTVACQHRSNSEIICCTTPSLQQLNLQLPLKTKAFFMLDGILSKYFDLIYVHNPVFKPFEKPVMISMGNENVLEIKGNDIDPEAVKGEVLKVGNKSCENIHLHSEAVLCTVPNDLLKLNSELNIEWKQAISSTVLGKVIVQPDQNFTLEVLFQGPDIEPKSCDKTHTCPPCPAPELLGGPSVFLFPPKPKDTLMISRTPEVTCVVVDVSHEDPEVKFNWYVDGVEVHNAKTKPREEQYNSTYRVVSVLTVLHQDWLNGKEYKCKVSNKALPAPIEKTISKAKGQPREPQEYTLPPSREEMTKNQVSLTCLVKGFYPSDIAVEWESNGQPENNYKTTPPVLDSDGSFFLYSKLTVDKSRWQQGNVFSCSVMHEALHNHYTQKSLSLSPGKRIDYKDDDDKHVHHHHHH
Assay: SPR Biacore, antibody captured, ECD-Fc analyte, 1:1 model
koff for assorted binders
QUANTITY: koff (s⁻¹)

D11-S17Y (antibody, human IgG2, kappa, V domains shown, Human engineered IgG2, kappa) VH: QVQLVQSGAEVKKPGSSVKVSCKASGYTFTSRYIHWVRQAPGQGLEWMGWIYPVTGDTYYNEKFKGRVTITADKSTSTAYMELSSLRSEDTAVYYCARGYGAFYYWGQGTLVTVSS VL: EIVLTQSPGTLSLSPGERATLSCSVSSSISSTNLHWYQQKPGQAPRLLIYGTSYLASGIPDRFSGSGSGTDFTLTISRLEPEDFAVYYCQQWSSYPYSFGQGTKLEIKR	0.00028
C8-6 (antibody, human IgG2, kappa, V domains shown, Called IgG4, kappa; also called Mab C8-6) VH: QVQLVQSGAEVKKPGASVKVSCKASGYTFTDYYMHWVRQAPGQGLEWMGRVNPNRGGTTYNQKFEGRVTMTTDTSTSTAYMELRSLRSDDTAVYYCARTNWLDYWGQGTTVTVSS VL: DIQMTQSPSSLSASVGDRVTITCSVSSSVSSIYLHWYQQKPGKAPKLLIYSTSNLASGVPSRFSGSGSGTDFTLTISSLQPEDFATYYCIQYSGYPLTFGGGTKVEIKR	0.0003
C8-co-16 (antibody, human IgG2, kappa, V domains shown, Called IgG4, kappa) VH: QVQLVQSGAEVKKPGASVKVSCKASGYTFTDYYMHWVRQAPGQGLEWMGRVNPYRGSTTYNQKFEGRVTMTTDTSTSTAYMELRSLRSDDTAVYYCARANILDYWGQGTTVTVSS VL: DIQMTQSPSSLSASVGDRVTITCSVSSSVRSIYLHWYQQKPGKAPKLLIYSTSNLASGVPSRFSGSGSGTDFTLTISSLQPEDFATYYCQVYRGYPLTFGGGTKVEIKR	3e-05
D11-C27G3 (antibody, human IgG2, kappa, V domains shown, Human engineered IgG2, kappa; also called D11-27G3) VH: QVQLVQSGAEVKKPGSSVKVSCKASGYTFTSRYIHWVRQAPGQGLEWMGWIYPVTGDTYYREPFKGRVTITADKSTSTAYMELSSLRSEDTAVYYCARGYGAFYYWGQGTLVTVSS VL: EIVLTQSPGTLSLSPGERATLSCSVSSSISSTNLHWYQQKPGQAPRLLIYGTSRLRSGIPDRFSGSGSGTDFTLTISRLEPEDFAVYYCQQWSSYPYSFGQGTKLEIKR	9e-05
